Biological target: CCR9 (Homo sapiens)
Construct: CCR9-expressing cells (such as a T cell line MOLT-4 cells)
Assay: chemotaxis (conventional migration) assay and/or calcium mobilization (calcium flux) assay
Conditions: either or both of the chemotaxis assay and calcium mobilization assays; MOLT-4 cells, TECK
pIC50: −log10 of the molar value.
Below is a list of entries, each paired with its recorded pIC50 value.

Q: Quick one: pIC50 of O=C(c1ccncc1)c1cc(Br)ccc1NS(=O)(=O)c1ccc(OC(F)(F)F)cc1 ?
Ans: > 6.00

Q: Quick one: pIC50 of CSc1cc(C(=O)c2cc(Cl)ccc2NS(=O)(=O)c2ccc(C(C)(C)C)cc2)ccn1 ?
Ans: > 6.00

Q: Quick one: pIC50 of O=C(c1cccnc1)c1cc(Cl)ccc1NS(=O)(=O)c1ccc(-c2cnco2)cc1 ?
Ans: > 6.00

---

Biological target: CCR9 (Homo sapiens, UniProt P51686)
Construct: CCR9-expressing cells (such as a T cell line MOLT-4 cells)
Sequence (P51686 whole entry): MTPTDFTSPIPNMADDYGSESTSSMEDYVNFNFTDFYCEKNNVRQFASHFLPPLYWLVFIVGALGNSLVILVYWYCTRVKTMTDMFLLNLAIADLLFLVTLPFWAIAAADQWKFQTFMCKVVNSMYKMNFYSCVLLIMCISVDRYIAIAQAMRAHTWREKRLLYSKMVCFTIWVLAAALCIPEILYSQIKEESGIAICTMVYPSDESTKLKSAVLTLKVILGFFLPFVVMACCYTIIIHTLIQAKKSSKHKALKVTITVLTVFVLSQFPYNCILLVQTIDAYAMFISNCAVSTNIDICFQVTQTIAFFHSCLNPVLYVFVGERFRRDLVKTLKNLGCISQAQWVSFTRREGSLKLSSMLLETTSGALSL
Assay: chemotaxis (conventional migration) assay and/or calcium mobilization (calcium flux) assay
Details: either or both of the chemotaxis assay and calcium mobilization assays; MOLT-4 cells, TECK
readout.name: IC50

Examples with their reported IC50 follow.
compound	system	IC50
Cc1ccc(C(=O)c2cc(Cl)ccc2NS(=O)(=O)c2ccc(C3C[C@@H](C)O[C@@H](C)C3)cc2)cn1 (some centres unmarked)	CCR9 (Homo sapiens, UniProt P51686)	< 1000 nM
CC(=O)OCC(C)(C)c1ccc(S(=O)(=O)Nc2ccc(Cl)cc2C(=O)c2ccncc2)cc1	CCR9 (Homo sapiens, UniProt P51686)	< 1000 nM
C[C@@H]1CC(c2ccc(S(=O)(=O)Nc3ccc(Cl)cc3C(=O)c3cccnc3)cc2)C[C@H](C)O1 (some centres unmarked)	CCR9 (Homo sapiens, UniProt P51686)	< 1000 nM

Q: Quick one: IC50 of CS(=O)(=O)c1ccc(S(=O)(=O)Nc2ccc(Cl)cc2C(=O)c2cccnc2)cc1 ?
Ans: > 1000 nM

Q: Quick one: IC50 of Cc1ccc(C(=O)c2cc(Cl)ccc2NS(=O)(=O)c2ccc(S(C)(=O)=O)cc2)cn1 ?
Ans: < 1000 nM

Q: Quick one: IC50 of O=C(c1cccnc1)c1cc(Cl)ccc1NS(=O)(=O)c1ccc(-c2nccs2)cc1 ?
Ans: > 1000 nM

Q: Quick one: IC50 of COc1c(Cl)ccc(NS(=O)(=O)c2ccc(C(C)(C)C)cc2)c1C(=O)c1ccncc1 [drawing 475] ?
Ans: < 1000 nM

Q: Quick one: IC50 of C[C@@H]1CN(c2ccc(S(=O)(=O)Nc3ccc(Cl)cc3C(=O)c3cccnc3)cc2F)C[C@H](C)O1 ?
Ans: < 1000 nM
